B1: TPR 5TU (parent)
chain: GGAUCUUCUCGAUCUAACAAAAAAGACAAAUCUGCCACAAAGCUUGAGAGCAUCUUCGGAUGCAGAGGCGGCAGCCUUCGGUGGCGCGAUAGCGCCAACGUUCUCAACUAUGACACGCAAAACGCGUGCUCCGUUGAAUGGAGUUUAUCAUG

- Variants of: B1
- ASSAY TEXT: polymerase ribozyme fitness, log enrichment relative to wild type (log ratio); higher = more active; in vitro selection for triplet polymerase activity
Fewer inactive variants are shown than the library holds.
PROPERTY LABEL: polymerase ribozyme fitness (log ratio)

>>> measurement("G50A C57U C76U C125U A142C U144G A150G")
-3.98
>>> measurement("C57A A91G U101A A142G")
-4.08
>>> measurement("G59C C96G C118G A142U")
-3.61
>>> measurement("G94C A115U")
-2.98
>>> measurement("A37G C57G A97G")
-2.57
>>> measurement("G58C G143A")
-0.724
>>> measurement("G83U G133C")
-2.09
>>> measurement("A73U G84C C116A")
-2.63
>>> measurement("U4G A73C G92C")
-4.15
